Measured Ki (UniProtKB P35372)
Sequence (P35372 whole entry): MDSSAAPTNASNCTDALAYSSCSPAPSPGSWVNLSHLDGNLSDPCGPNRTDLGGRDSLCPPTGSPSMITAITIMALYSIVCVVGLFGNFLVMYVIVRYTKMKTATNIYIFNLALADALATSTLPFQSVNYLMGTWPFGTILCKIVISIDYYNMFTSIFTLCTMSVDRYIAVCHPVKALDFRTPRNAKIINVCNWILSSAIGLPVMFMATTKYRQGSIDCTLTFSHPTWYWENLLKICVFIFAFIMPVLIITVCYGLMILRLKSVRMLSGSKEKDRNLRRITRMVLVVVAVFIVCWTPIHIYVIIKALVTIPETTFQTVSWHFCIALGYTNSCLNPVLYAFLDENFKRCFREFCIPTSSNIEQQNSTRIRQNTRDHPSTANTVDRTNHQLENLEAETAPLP
assay_endpoint: Ki (µM)

INSERT INTO results (compound, assay_endpoint, measured_result) VALUES
  ('O=C(Cc1ccc(Cl)c(Cl)c1)N1CCN(Cc2cccnc2)C2CCCC(N3CCC(O)C3)C21 (mixture of isomers)', 'Ki', 3.48),
  ('O=C(Cc1ccc(Cl)c(Cl)c1)N1CCN(Cc2cccnc2)C2CCCC(N3CCCC3)C21 (racemic)', 'Ki', 2.46);
